# TARGET_DESC: Progesterone receptor (Oryctolagus cuniculus, UniProt P06186)
# Sequence (P06186 whole entry): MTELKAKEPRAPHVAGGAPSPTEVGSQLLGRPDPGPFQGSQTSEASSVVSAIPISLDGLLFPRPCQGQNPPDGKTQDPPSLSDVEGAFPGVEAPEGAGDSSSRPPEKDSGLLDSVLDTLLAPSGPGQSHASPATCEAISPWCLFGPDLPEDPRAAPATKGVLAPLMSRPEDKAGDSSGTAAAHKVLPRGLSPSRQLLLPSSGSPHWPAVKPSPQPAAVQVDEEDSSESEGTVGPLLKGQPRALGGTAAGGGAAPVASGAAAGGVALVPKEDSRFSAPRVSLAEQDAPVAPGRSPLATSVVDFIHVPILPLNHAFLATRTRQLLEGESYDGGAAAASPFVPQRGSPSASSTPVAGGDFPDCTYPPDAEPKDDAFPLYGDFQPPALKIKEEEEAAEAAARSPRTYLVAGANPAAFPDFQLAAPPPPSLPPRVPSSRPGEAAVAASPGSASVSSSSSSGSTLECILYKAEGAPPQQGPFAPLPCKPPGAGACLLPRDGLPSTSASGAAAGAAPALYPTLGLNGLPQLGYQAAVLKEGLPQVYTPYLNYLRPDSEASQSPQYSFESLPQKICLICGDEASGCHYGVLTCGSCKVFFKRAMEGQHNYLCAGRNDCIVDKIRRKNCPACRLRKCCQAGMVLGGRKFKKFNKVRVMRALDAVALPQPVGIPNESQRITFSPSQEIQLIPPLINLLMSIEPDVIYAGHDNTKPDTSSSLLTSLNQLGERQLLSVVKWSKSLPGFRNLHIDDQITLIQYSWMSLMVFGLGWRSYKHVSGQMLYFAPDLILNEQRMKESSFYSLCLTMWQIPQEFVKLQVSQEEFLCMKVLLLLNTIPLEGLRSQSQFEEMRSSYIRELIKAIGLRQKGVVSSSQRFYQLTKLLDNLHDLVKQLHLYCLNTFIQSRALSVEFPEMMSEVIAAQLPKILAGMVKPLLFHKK
pIC50: −log10 of the molar value.
PARAMETER_MEASURED: pIC50

>>> observed_value("CC(C)(CO)[C@H]1Nc2ccc([N+](=O)[O-])cc2[C@H]2C=CC[C@H]21")
6.89

----------
# PROCEDURE_TEXT: Displacement of [3H]17-beta-estradiol from rabbit ER by liquid scintillation counting
# Design: species or system Oryctolagus cuniculus
pIC50: −log10 of the molar value.
PARAMETER_MEASURED: pIC50

>>> observed_value("CC(C)(CO)[C@H]1Nc2ccc([N+](=O)[O-])cc2[C@H]2C=CC[C@H]21")
"< 3.00"

----------
# TARGET_DESC: Glucocorticoid receptor (Rattus norvegicus, UniProt P06536)
# Sequence (P06536 whole entry): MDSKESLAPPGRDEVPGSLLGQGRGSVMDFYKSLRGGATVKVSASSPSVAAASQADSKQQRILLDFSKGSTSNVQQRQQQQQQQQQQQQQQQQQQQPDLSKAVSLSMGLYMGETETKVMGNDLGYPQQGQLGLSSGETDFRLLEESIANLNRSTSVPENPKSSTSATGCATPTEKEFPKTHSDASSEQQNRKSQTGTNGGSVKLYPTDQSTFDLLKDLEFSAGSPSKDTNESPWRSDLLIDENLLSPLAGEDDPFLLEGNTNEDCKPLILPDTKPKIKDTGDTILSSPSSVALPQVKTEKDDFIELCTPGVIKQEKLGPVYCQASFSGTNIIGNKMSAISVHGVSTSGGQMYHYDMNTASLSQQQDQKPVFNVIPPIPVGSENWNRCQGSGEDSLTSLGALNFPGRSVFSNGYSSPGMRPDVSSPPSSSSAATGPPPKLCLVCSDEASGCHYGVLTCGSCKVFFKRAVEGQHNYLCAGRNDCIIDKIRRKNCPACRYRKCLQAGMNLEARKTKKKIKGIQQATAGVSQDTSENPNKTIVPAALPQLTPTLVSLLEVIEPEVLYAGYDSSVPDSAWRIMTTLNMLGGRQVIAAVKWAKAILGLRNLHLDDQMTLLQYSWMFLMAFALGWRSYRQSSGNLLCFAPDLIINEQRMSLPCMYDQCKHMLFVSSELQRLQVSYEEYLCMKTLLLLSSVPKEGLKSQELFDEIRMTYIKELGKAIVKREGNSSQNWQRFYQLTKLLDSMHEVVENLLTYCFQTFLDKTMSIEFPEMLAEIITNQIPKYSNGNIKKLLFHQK
PARAMETER_MEASURED: IC50

>>> observed_value("CC(C)(CO)[C@H]1Nc2ccc([N+](=O)[O-])cc2[C@H]2C=CC[C@H]21")
"18 µM"
